Target: T1, 4H949-bN
T1 chain: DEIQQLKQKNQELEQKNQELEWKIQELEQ
Experiment: two-hybrid library CCNG1;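 also: natural log of median RNA to DNA barcode read ratio; higher means stronger binding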
quantity-kind: interaction score
API doc: respond with a numeric literal and nothing else, no unit.

(Q) Can you look up the measured interaction score of DKNQQLEQENQELKQKIQELEWEIQELEQ [4H3297-bN] for me?
(A) -1.29

(Q) Can you look up the measured interaction score of DKIQQLKQKNQELKQKIQELEWEIQELEQ [4H3041-bN] for me?
(A) -1.33

(Q) Can you look up the measured interaction score of DKIQQLKQENQELKQEIQELEWKNQELKQ [4H2760-bN] for me?
(A) 0.472

(Q) Can you look up the measured interaction score of DKIQQLEQEIQELKQENQELKWKNQELEQ [4H2143-bN] for me?
(A) -0.46

(Q) Can you look up the measured interaction score of DEIQQLEQENQELKQKIQELKWENQELEQ [4H235-bN] for me?
(A) -0.438

(Q) Can you look up the measured interaction score of DEIQQLKQKNQELEQKIQELEWENQELKQ [4H932-bN] for me?
(A) -1.08

(Q) Can you look up the measured interaction score of DKIQQLEQKNQELEQEIQELKWENQELKQ [4H2444-bN] for me?
(A) -0.477

The reported numbers originate from paper PMC10397247.
